Target sequence: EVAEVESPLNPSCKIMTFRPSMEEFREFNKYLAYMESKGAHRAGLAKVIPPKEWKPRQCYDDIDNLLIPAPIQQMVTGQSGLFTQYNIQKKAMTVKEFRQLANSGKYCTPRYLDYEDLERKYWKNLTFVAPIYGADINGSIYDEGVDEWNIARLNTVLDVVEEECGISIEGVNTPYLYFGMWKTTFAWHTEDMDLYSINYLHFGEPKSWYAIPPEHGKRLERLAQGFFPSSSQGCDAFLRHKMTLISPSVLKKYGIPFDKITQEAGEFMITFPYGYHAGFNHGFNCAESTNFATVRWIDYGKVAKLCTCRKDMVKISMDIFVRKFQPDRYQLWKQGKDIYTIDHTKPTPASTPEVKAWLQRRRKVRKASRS

- compound: "Oc1nc(Oc2ccccc2)nc2cnccc12 [Example 34, 2-phenoxypyrido[3,4-d]pyrimidin-4-ol]"
  IC50: "100 to 1000 nM"
- compound: "Cn1cnc(-c2nccc3c(O)nc(Oc4ccc(F)c(F)c4)nc23)c1"
  IC50: "100 to 1000 nM"
- compound: "COCCn1cc(Oc2nc(O)c3ccncc3n2)cn1"
  IC50: "100 to 1000 nM"
- compound: "Oc1nc(Oc2cccc(F)c2)nc2cnccc12"
  IC50: "≤ 100 nM"
- compound: "Oc1nc(Oc2cnn(C3CCOCC3)c2)nc2cnccc12"
  IC50: "100 to 1000 nM"
- compound: "CC(=O)N1CC[C@@H](n2cc(Oc3nc(O)c4ccncc4n3)cn2)C1"
  IC50: "≤ 100 nM"
- compound: "CC(C)OCCOc1nc(O)c2ccncc2n1"
  IC50: "100 to 1000 nM"
- compound: "CC(=O)N1CCC(n2cc(Oc3nc(O)c4ccncc4n3)cn2)CC1"
  IC50: "≤ 100 nM"
